The values you see were collected from PubChem BioAssay (NCI).

Test system: DMS 273 small cell lung
Test: NCI tumour cell line growth inhibition, 48 h
Recorded TGI for the following compounds

## Task Sample CC(C)N1CN(C(C(=O)N[C@@H]2C(=O)N3C2SC(C)(C)C3C(=O)O)c2ccccc2)CSC1=S (stereo not given in full) — what was its TGI?
## Result > 100 µM

## Task Sample CCCS(=O)(=O)/C(=C(\c1ccc(Br)cc1)S(=O)(=O)CCC)c1ccc(Br)cc1 — what was its TGI?
## Result > 10 µM

## Task Sample COc1ccc(CNc2nc3cc(C(F)(F)F)ccc3nc2C)cc1OC — what was its TGI?
## Result 48.9 µM

## Task Sample COc1cccc(/C=C2\C(=O)N(C(=O)c3ccc(NC(C)=O)cc3)N=C2C)c1 — what was its TGI?
## Result > 100 µM

## Task Sample C=C1CCC23CC(CC[C@@H]2[C@@]12C[C@@H](c1ccoc1)OC2=O)OC3=O (stereo not given in full) — what was its TGI?
## Result > 100 µM

## Task Sample c1cc[c]([Pb]([c]2ccccc2)[c]2ccccc2)cc1 — what was its TGI?
## Result 27.8 µM

## Task Sample COC(C(O)c1ccc2c(c1)OCO2)P(=O)(c1ccccc1)c1ccccc1 (stereo not given) — what was its TGI?
## Result > 100 µM

## Task Sample CN(C)C(c1ccccc1)C(O)c1ccccc1 (stereo not given) — what was its TGI?
## Result > 100 µM

## Task Sample O=C(/C=C/c1c(O)ccc2ccccc12)c1ccccc1 — what was its TGI?
## Result > 100 µM

## Task Sample C/C=C1/C(=C/c2[nH]c(/C=c3\[nH]/c(=C/C4=NC(=O)C(CC)=C4C)c(C)c3CCC(=O)O)c(CCC(=O)O)c2C)NC(=O)C1C (stereo not given) — what was its TGI?
## Result > 150 µg/mL

###

System: SK-MEL-5 melanoma
Assay: NCI tumour cell line growth inhibition, 48 h; in the data active = GI50 below about 0.43 µM; inactive = the rest
Permitted responses: label 1 for active, label 0 for inactive

{"COMPOUND": "COc1cc2c3c(n(CCNCCCNCCn4c5c(c6cc(OC)c(OC)cc6c4=O)C(=O)c4ccccc4-5)c(=O)c2cc1OC)-c1ccccc1C3=O", "TARGET OR SYSTEM": "SK-MEL-5 melanoma", "CLASS LABEL": "label 0"}

## Task Lab log entry: COc1cc2c3c(n(C)c(=O)c2cc1OC)-c1cc2c(cc1/C3=C\CNCCCN)OCO2 — outcome as called in the assay?
## Result label 0

## Task Lab log entry: O=S1(=O)N(CCNc2nccc(-c3c(-c4cccc(O)c4)nc4sccn34)n2)CCN1Cc1ccccc1 — outcome as called in the assay?
## Result label 0

## Task Lab log entry: COc1cc2c3c(n(CCCCOC(=O)C(Cl)(Cl)Cl)c(=O)c2cc1OC)-c1cc2c(cc1C3=O)OCO2 — outcome as called in the assay?
## Result label 0

## Task Lab log entry: CCC(=O)c1c(C(F)(F)F)n([O-])c2ccc(C)cc2[n+]1=O — outcome as called in the assay?
## Result label 0

###

Test system: SF-539 CNS
Test: NCI tumour cell line growth inhibition, 48 h
Recorded TGI for the following molecules

Past entries and their recorded results:
{"MOLECULE": "CCOC(=O)CN=C1NNS(=O)(=O)c2ccccc21", "TARGET OR SYSTEM": "SF-539 CNS", "TGI": "> 100 µM"}
{"MOLECULE": "O=C(O)[C@@H]1CCCCN1Cc1cc2cc3c(cc2c2cc(OCc4ccccc4)ccc12)OCO3", "TARGET OR SYSTEM": "SF-539 CNS", "TGI": "16.6 µM"}
{"MOLECULE": "CCCCCCCCCCN(CCCCCCCCCC)C(=O)COc1c2cc(C(C)(C)C)cc1Cc1cc(C(C)(C)C)cc(c1OCC(=O)N(CCCCCCCCCC)CCCCCCCCCC)Cc1cc(C(C)(C)C)cc(c1OCC(=O)N(CCCCCCCCCC)CCCCCCCCCC)Cc1cc(C(C)(C)C)cc(c1OCC(=O)N(CCCCCCCCCC)CCCCCCCCCC)C2", "TARGET OR SYSTEM": "SF-539 CNS", "TGI": "13.7 µM"}
{"MOLECULE": "N#Cc1nc(C2=C(Cl)c3ccccc3OC2)[nH]c1C#N", "TARGET OR SYSTEM": "SF-539 CNS", "TGI": "45.2 µM"}
{"MOLECULE": "Cc1ccc(N=Nc2c(C)c(C#N)c(=S)n(C3OC(CO)C(O)C(O)C3O)c2C)cc1 (configuration not stated)", "TARGET OR SYSTEM": "SF-539 CNS", "TGI": "> 100 µM"}

## Task Sample CC(C)Oc1ccc2c(c1)OCC1Cc3ccccc3OC21 (configuration not stated) — what was its TGI?
## Result > 100 µM

## Task Sample C=C1CC[C@@H]2[C@](C)(COC(C)=O)[C@H](OC(C)=O)CC[C@@]2(C)[C@@H]1CC(Nc1ccc(S(=O)(=O)Nc2ncccn2)cc1)C1=CCOC1=O (some centres not stated) — what was its TGI?
## Result 2.94 µM

###

Test system: UO-31 renal
Assay: NCI tumour cell line growth inhibition, 48 h; in the data active = GI50 below about 0.43 µM; inactive = the rest
Permitted responses: active, inactive

{"MOLECULE": "COC(=O)[C@H](Cc1c[nH]c2ccccc12)NC(=O)[C@@H](OC)[C@@H]1Cc2cc3cc(OC4CC(OC5CC(O)C(O)C(C)O5)C(O)C(C)O4)c(C)c(O)c3c(O)c2C(=O)[C@H]1OC1CC(OC2CC(OC3CC(C)(O)C(O)C(C)O3)C(O)C(C)O2)C(O)C(C)O1 (stereo partly drawn)", "TARGET OR SYSTEM": "UO-31 renal", "CLASS LABEL": "active"}
{"MOLECULE": "Fc1ccc(-c2nn3ncccc3c2-c2ccnc(Nc3ccc4c(c3)OCCO4)n2)cc1", "TARGET OR SYSTEM": "UO-31 renal", "CLASS LABEL": "inactive"}

Consider the record given below.
## Task Lab log entry: COC(=O)c1c(C)[nH]c(/C=C2\N=C(c3ccc[nH]3)C=C2OC)c1C — outcome as called in the assay?
## Result active

###

Test system: SF-539 CNS
Experiment: NCI tumour cell line growth inhibition, 48 h
Recorded TGI for the following compounds

Past entries and their recorded results:
{"COMPOUND": "Cc1ccc(NC(=S)N/N=C(/c2ccccc2)c2ccccn2)cc1", "TGI": "10.3 µM"}
{"COMPOUND": "O=C(/C=C/c1c(O)ccc2ccccc12)c1ccccc1", "TGI": "> 100 µM"}
{"COMPOUND": "Cc1cc(C)n(C2OC(CO)C(O)C(O)C2O)c(=S)c1C#N (stereo unspecified)", "TGI": "> 100 µM"}

## Task Query TGI on SF-539 CNS for COc1cccc(/C=C2\C(=O)N(C(=O)c3ccc(NC(C)=O)cc3)N=C2C)c1
## Result > 100 µM

## Task Query TGI on SF-539 CNS for OC/C=C(\I)CCCOCOCc1ccccc1
## Result > 100 µM

## Task Query TGI on SF-539 CNS for O=C(/C=C\n1cnc(-c2cc(C(F)(F)F)cc(C(F)(F)F)c2)n1)NNc1cnccn1
## Result 1.12 µM

###

System: SF-295 CNS
Assay: NCI tumour cell line growth inhibition, 48 h
Recorded TGI for the following molecules

Past entries and their recorded results:
{"MOLECULE": "CC1(C)N=C(N)N=C(N)N1c1ccc(OCc2ccc(S(=O)(=O)F)c(Cl)c2)c(Cl)c1", "MEASURED QUANTITY": "TGI", "REPORTED RESULT": "> 100 µM"}
{"MOLECULE": "Cc1ccc(-c2cc(=O)c3cc(C)c(C)c(C(=O)O)c3o2)cc1C", "MEASURED QUANTITY": "TGI", "REPORTED RESULT": "> 100 µM"}
{"MOLECULE": "O=C(Nc1ccc(Cl)cc1Cl)C(=O)C(C(=O)c1ccncc1)C1OC(=O)c2ccccc21 (stereo not given)", "MEASURED QUANTITY": "TGI", "REPORTED RESULT": "> 100 µM"}

## Task Sample COc1ccc(-c2nnc(COc3ccc(NC(=O)Nc4ccc(Cl)c(C(F)(F)F)c4)cc3F)o2)cc1 — what was its TGI?
## Result 9.06 µM

## Task Sample COC(=O)C1=C(C(=O)OC)c2cc(OC)ccc2C(C(=S)N(C)C)S1 (stereo not given) — what was its TGI?
## Result > 100 µM

###

Recorded TGI for the following molecules
Test system: KM12 colon
Assay: NCI tumour cell line growth inhibition, 48 h

{"MOLECULE": "COc1ccc(C2=Nn3c(nnc(Cc4ccc(Cl)cc4)c3=O)SC2)cc1", "TGI": "> 100 µM"}

Now for a further molecule.
## Task Sample COc1ccc(OC)c(C(=O)c2oc3ccc(Br)cc3c2N)c1 — what was its TGI?
## Result 18.4 µM
